Give Activity for every item shown.
species: Homo sapiens; assay: Binding affinity to human CCL28 at 100 uM by glycan microarray analysis
Give bare numbers, in %.

Illustrative cases are given below, each with its answer.
STRUCTURE_STRING | UNITS_SYMBOL | Activity
NCCOCCO[C@@H]1O[C@@H](C(=O)O)[C@@H](OS(=O)(=O)O)[C@H](O)[C@H]1O | % | 80
NCCOCCO[C@@H]1O[C@@H](C(=O)O)[C@@H](O[C@@H]2O[C@@H](C(=O)O)[C@@H](O[C@@H]3O[C@@H](C(=O)O)[C@@H](O)[C@H](O)[C@H]3O)[C@H](O)[C@H]2O)[C@H](O)[C@H]1O | % | 72
NCCOCCO[C@@H]1O[C@@H](C(=O)O)[C@@H](O[C@@H]2O[C@@H](C(=O)O)[C@@H](OS(=O)(=O)O)[C@H](O)[C@H]2O)[C@H](O)[C@H]1O | % | 84
NCCOCCO[C@@H]1O[C@@H](C(=O)O)[C@@H](O[C@@H]2O[C@@H](C(=O)O)[C@@H](OS(=O)(=O)O)[C@H](O)[C@H]2OS(=O)(=O)O)[C@H](O)[C@H]1OS(=O)(=O)O | % | 76
NCCOCCO[C@@H]1O[C@@H](C(=O)O)[C@@H](O)[C@H](O)[C@H]1O | % | 46
NCCOCCO[C@@H]1O[C@@H](C(=O)O)[C@@H](O[C@@H]2O[C@@H](C(=O)O)[C@@H](O[C@@H]3O[C@@H](C(=O)O)[C@@H](O[C@@H]4O[C@@H](C(=O)O)[C@@H](OS(=O)(=O)O)[C@H](O)[C@H]4OS(=O)(=O)O)[C@H](O)[C@H]3OS(=O)(=O)O)[C@H](O)[C@H]2OS(=O)(=O)O)[C@H](O)[C@H]1OS(=O)(=O)O | % | 72
NCCOCCO[C@@H]1O[C@@H](C(=O)O)[C@@H](O[C@@H]2O[C@@H](C(=O)O)[C@@H](O[C@@H]3O[C@@H](C(=O)O)[C@@H](OS(=O)(=O)O)[C@H](O)[C@H]3O)[C@H](O)[C@H]2O)[C@H](O)[C@H]1O | % | 80
NCCOCCO[C@@H]1O[C@@H](C(=O)O)[C@@H](O[C@@H]2O[C@@H](C(=O)O)[C@@H](O[C@@H]3O[C@@H](C(=O)O)[C@@H](O[C@@H]4O[C@@H](C(=O)O)[C@@H](O)[C@H](O)[C@H]4O)[C@H](O)[C@H]3O)[C@H](O)[C@H]2O)[C@H](O)[C@H]1O | % | 56

Can you give me Activity for all of these, one by one?
1. NCCOCCO[C@@H]1O[C@@H](C(=O)O)[C@@H](OS(=O)(=O)O)[C@H](O)[C@H]1OS(=O)(=O)O
2. NCCOCCO[C@@H]1O[C@@H](C(=O)O)[C@@H](O[C@@H]2O[C@@H](C(=O)O)[C@@H](O)[C@H](O)[C@H]2O)[C@H](O)[C@H]1O
3. NCCOCCO[C@@H]1O[C@@H](C(=O)O)[C@@H](O[C@@H]2O[C@@H](C(=O)O)[C@@H](O[C@@H]3O[C@@H](C(=O)O)[C@@H](OS(=O)(=O)O)[C@H](O)[C@H]3OS(=O)(=O)O)[C@H](O)[C@H]2OS(=O)(=O)O)[C@H](O)[C@H]1OS(=O)(=O)O
4. NCCOCCO[C@@H]1O[C@@H](C(=O)O)[C@@H](O[C@@H]2O[C@@H](C(=O)O)[C@@H](O[C@@H]3O[C@@H](C(=O)O)[C@@H](O[C@@H]4O[C@@H](C(=O)O)[C@@H](OS(=O)(=O)O)[C@H](O)[C@H]4O)[C@H](O)[C@H]3O)[C@H](O)[C@H]2O)[C@H](O)[C@H]1O

1. 51
2. 58
3. 84
4. 54
